The compounds listed here are annotated with their viability at 28.5 h, 10 µM.
Assay: in vitro
Conditions: human, hela cells, % viability
Just the number in %, nothing appended.

State the recorded viability at 28.5 h, 10 µM for this entry: `COc1cccc(/C=C2/SC(=S)NC2=O)c1OCCCOc1ccc(C)cc1C`
94.8

State the recorded viability at 28.5 h, 10 µM for this entry: `O=C(Nc1cccc(F)c1)N(CCO)Cc1cccnc1`
104

State the recorded viability at 28.5 h, 10 µM for this entry: `CCOC(=O)CC(=O)CSc1nc2nc(C)cc(C)n2n1`
99.8

State the recorded viability at 28.5 h, 10 µM for this entry: `CSc1cccc(-c2cnccc2-n2ccnc2)c1`
92.5

State the recorded viability at 28.5 h, 10 µM for this entry: `N#Cc1c(NC(=O)CSc2nnc(-c3ccncc3)o2)sc2c1CCCC2`
99.2
